biological target: T1, human transferrin receptor (recombinant, for surface plasmon resonance) (human, UniProt P02786 89-760); test: SPR 25C
T1 construct: also called huTfR; human transferrin receptor-biotinylated
T1 sequence (P02786 89-760 limits assumed): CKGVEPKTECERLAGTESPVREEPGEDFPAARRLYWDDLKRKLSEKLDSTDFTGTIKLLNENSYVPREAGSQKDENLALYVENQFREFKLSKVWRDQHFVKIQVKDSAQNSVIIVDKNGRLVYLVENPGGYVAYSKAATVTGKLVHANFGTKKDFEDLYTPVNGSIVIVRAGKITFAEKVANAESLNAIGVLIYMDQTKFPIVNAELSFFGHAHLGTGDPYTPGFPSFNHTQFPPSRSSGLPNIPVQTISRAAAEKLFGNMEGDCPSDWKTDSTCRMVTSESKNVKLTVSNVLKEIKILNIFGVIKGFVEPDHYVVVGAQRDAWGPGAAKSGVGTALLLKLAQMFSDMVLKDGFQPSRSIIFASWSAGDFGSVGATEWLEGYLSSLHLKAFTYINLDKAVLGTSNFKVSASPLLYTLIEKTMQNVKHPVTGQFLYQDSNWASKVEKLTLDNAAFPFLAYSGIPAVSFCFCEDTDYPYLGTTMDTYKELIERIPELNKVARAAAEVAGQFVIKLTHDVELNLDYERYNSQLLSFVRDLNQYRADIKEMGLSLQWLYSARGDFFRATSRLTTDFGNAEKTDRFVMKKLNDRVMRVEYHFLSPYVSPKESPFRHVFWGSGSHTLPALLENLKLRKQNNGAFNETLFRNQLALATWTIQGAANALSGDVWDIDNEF
Experimental Endpoint: koff
Mention the unit after the number when you answer.

2/99 VH19/VL6 (antibody, V domains shown) VH: QSMQESGPGLVKPSQTLSLTCTVSGFSLSSYAMSWIRQHPGKGLEWIGYIWSGGSTDYAPSLKSRVTISVDTSKNQFSLKLSSVTAADTAVYYCARRYGTSYPDYGDANGFDPWGQGTLVTVSS VL: AIQLTQSPSSLSASVGDRVTITCRASQSISSYLSWYQQKPGKAPKLLIYRASTLASGVPSRFSGSGSGTDFTLTISSLQPEDFATYYCQQSYSSSNVDNTFGGGTKVEIK    0.001 s⁻¹

Need koff, item 2/99 VH9/VL12 (antibody, V domains shown) VH: QQLLESGGGLVQPGGSLRLSCAASGFTFSSYAMSWVRQAPGKGLEWVGYIWSGGSTDYADSVKGRFTISRDNSKNTLYLQMNSLRAEDTAVYYCAKRYGTSYPDYGDANGFDPWGQGTLVTVSS VL: DIQMTQSPSSLSASVGDRVTITCRASQSISSYLAWYQQKPGKAPKLLIYRASTLASGVPSRFSGSRSGTDFTLTISSLQPEDFATYYCQQHYSSSNVDNTFGGGTKVEIK
0.001 s⁻¹

Need koff, item 2/99 VH13/VL15 (antibody, V domains shown) VH: QVQLQESGPGLVKPSETLSLTCTVSGFSLSSYAMSWIRQPPGKGLEWIGYIWSGGSTDYNPSLKSRVTISVDTSKNQVSLKLSSVTAADTAVYYCARRYGTSYPDYGDANGFDPWGQGTLVTVSS VL: DIVMTQSPDSLAVSLGERATINCKSSQSISSYLIWYQQKPGQPPKLLIYRASTLASGVPDRFSGSGSGTDFTLTISSLQAEDVAVYYCQQAYSSSNVDNTFGGGTKVEIK
0.00711 s⁻¹
